- Test system: OVCAR-3 ovarian
- assay.method.text: NCI-60 one-dose screen, 48 h
- condition.set: 10 µM unless noted
Compounds without any hit were thinned out: in the full panel of roughly 83,000, 20% have a hit. Calls of active or inactive are those of the source. Rule for the calls: active = growth percent below 10; inactive = the rest.
Outcome codes: true (1) (active), false (0) (inactive)

1) CSc1nc(-c2ccc(O)cc2O)c2c(=O)[nH]c(Nc3ccc(S(=O)(=O)Nc4nc(C)cc(C)n4)cc3)nc2n1 = false (0)
2) CC1=C([Se]CC(OC(=O)[C@@H](CSSC(C)(C)C)NC(=O)C(C)(C)C)C(=O)NCCCCCC(=O)OCc2ccccc2)C(=O)c2ccccc2C1=O (stereo partly specified) = true (1)
3) COc1cccc(/C=N\NC(=O)c2ccncc2)c1O = false (0)
4) N=C1c2nc3n(c2C(=O)c2nc4n(c21)CCCCC4)CCCCC3 = false (0)
5) COc1ccc(CNC(=O)c2c(C)n([O-])c3cc(F)c(F)cc3[n+]2=O)cc1 = false (0)
6) O=C(O)c1ccc2cccnc2c1O = true (1)
7) COc1ccc(NC(=O)c2ccc(-c3ccccc3)cc2)c(C(N)=O)c1 = false (0)
8) N#Cc1c(-c2ccccc2)cc(-c2ccccc2)n(CCCC(=O)O)c1=O = false (0)
9) [N-]=[N+]=NCc1cccc(/C(O)=C/C(=O)C(=O)O)c1 = false (0)
10) COc1ccccc1NC(=O)c1sc2nc3c(cc2c1N)C(=O)CCC3 = false (0)
11) O=C(c1ccc(N2CCOCC2)cc1[N+](=O)[O-])N1CCOCC1 = false (0)
12) CC12CCC3C(=CCc4cc(O)ccc43)C1CCC2=O (stereo unspecified) = false (0)
13) O=C(Nc1cccc(-n2cc(-c3ccncc3)c(-c3cc(O)cc(Cl)c3)n2)c1)Nc1ccc(Cl)c(Cl)c1 = true (1)
14) Clc1ccc2[nH]cc(-c3cncn3CCc3ccccc3)c2c1 = false (0)
15) COc1ccc(N2CCN(CC(=O)N3CCN(c4nnc(-c5ccc(Cl)cc5)c(-c5ccc(Cl)cc5)n4)CC3)CC2)cc1 = false (0)
16) COc1ccc(-c2c3c(N)nc(-c4ccncc4)nc3nc3c2c(C)nn3-c2ccccc2)cc1 = false (0)
17) COc1ccc2nc(NC(=O)CN3CCn4c(nnc4C(F)(F)F)C3)sc2c1 = false (0)
18) CCSCC1CC(O)(c2ccccc2)C(c2ccccc2)C(c2ccc(Cl)cc2)O1 (stereo unspecified) = true (1)
19) N#Cc1c(-c2ccccc2)cc(-c2ccccc2)n(CCC(=O)O)c1=O = false (0)
20) COc1cc(-c2nnc(-c3nc(-c4cc(OC)c(OC)c(OC)c4)n4ccccc34)o2)ccc1N = false (0)
21) O=C1OC(Oc2ccccc2)(c2ccccc2)c2ccccc21 (stereo unspecified) = false (0)

---

- System: RPMI-8226 leukemia
- assay.method.text: NCI-60 one-dose screen, 48 h
- condition.set: 10 µM unless noted
The panel holds about 83,000 compounds, 20% with a hit somewhere; the sample as a whole holds those more often. The source made the active and inactive calls. Rule for the calls: active = growth percent below 10; inactive = the rest.
Outcomes: active, inactive

1. Cc1[nH]c(=O)[nH]c(=O)c1CCSSCCc1c(C)[nH]c(=O)[nH]c1=O = inactive
2. COC(=O)N/N=C/c1coc2ccc(Cl)cc2c1=O = inactive
3. COc1ccc(Cl)cc1Nc1nc(C(F)(F)F)ccc1C(=O)N/N=C/c1c(Cl)cccc1Cl = inactive
4. COc1cnc2c(c1)C(=O)c1c-2n(CCCn2ccnc2)c(=O)c2cc(F)ccc12 = active
5. CC1=C([Se]CC(OC(=O)[C@@H](CSSC(C)(C)C)NC(=O)C(C)(C)C)C(=O)NCCCCCC(=O)OCc2ccccc2)C(=O)c2ccccc2C1=O (stereo not given in full) = active
6. CCN(CC)CCSc1ncnc2c1cnn2-c1ccc(S(N)(=O)=O)cc1 = inactive
7. COc1cc(NC(C)CCCN)c2nc(C)ccc2c1Oc1ccc(F)cc1 (stereo not given) = inactive
8. O=c1oc2c(cc1-c1ccc([N+](=O)[O-])cc1)C(O)Oc1ccccc1-2 (stereo not given) = inactive
9. Nc1ccccc1C#Cc1ccccc1C#Cc1ccc(OCCCCCCOc2ccc(C#Cc3ccccc3C#Cc3ccccc3N)cc2)cc1 = inactive
10. CC1(C)CC2(C)CC(=O)C1C(C(=O)O)C2C(=O)O (stereo not given) = inactive
11. C1=C(Cc2ccccc2)n2cnc3ncnc(c32)S1 = inactive
12. Nc1ccc(Oc2c(F)c(F)c(Oc3ccc(N)cc3)c(F)c2F)cc1 = inactive
13. CCCCCCCCCCCCCCCCNC(=O)Nc1ccc2ccccc2c1 = inactive
14. Cc1sc2nc3c4ccccc4c(NCCCN(C)C)nn3c(=O)c2c1C = active
15. CC(=O)Nc1ccc(C(=O)COc2cccc(/C=C3\CCc4ccccc4C3=O)c2)cc1 = inactive
16. Cc1ccccc1NC(=O)NC(CC(N)=O)c1ccc2c(c1)nc(-c1cccc(Oc3ccc(C(C)(C)C)cc3)c1)n2CCCN1CCCCC1C (stereo not given) = active
17. Cc1cn(C(C=O)OC(C=O)CO)c(=O)[nH]c1=O (stereo not given) = inactive
18. CN1CCN(CCCOc2ccc3ncnc(Nc4ccc(OCc5cccc(F)c5)c(Cl)c4)c3c2)CC1 = active
19. COc1cnc2c(c1)C(=O)c1c-2n(CCCN2CCC(O)CC2)c(=O)c2cc(F)ccc12 = active
20. O=C(N/N=C/c1cccc(O)c1)c1ccc(C(F)(F)F)nc1Nc1cccc(C(F)(F)F)c1 = active
